- Test system: rabbit portal vein
- PROCEDURE_TEXT: Electrically induced submaximal contractions of isolated portal vein
- Format: cell-based
- MEASUREMENT_CONTEXT: Oryctolagus cuniculus; 1 µM; isolated rabbit portal vein, electrically stimulated; read-out: El.stim. portal vein % inhibition by 1 µM
REPORTED_METRIC: inhibition at 1 µM (%)
Lab book: enter the figure in %, no units written.

Solved entries (count: 3):
Q: Quick check: inhibition at 1 µM of CC(C)N(CCN(C)C(=O)C(c1ccccc1)c1ccccc1)C(C)C.Cl [Example No 3, hydrochloride] ?
Ans: 10

Q: Quick check: inhibition at 1 µM of CN(CCCN(C)C(C)(C)C)C(=O)C(c1ccccc1)c1ccccc1.Cl [Example No 7, hydrochloride] ?
Ans: 4

Q: Quick check: inhibition at 1 µM of CC(C)N(CCCN(C)C(=O)C(c1ccccc1)c1ccccc1)C(C)C [Example No 4] ?
Ans: 4

Continuing:
Q: Quick check: inhibition at 1 µM of CC(C)N(CCNC(=O)C(c1ccccc1)c1ccccc1)C(C)C [Example No 10] ?
Ans: 10

Q: Quick check: inhibition at 1 µM of CC(CC(c1ccccc1)c1ccccc1)NC(C)(C)C (centres unmarked) [Terodiline, reference compound] ?
Ans: 4

---

Examples of molecules with documented Selectivity factor for human urinary bladder in comparison with human salivary gland follow.
- Tested on: muscarinic receptors
- PROCEDURE_TEXT: Selectivity factor: isolated human urinary bladder versus human salivary gland (QNB radioligand)
- Type: binding
- MEASUREMENT_CONTEXT: quotient of inhibitory concentration on isolated human urinary bladder and human salivary gland; lower figure = higher selectivity for the bladder
Give your answer as a number; write no unit.

Solved entries (count: 4):
Q: Quick check: Selectivity factor for human urinary bladder in comparison with human salivary gland of CN(CCCN(C)C(C)(C)C)C(=O)C(c1ccccc1)c1ccccc1.Cl [Example No 7] ?
Ans: 2

Q: Quick check: Selectivity factor for human urinary bladder in comparison with human salivary gland of CC(C)N(CCNC(=O)C(c1ccccc1)c1ccccc1)C(C)C [Example No 10] ?
Ans: 6

Q: Quick check: Selectivity factor for human urinary bladder in comparison with human salivary gland of CC(CC(c1ccccc1)c1ccccc1)NC(C)(C)C (centres unmarked) [Terodiline, reference compound] ?
Ans: 93

Q: Quick check: Selectivity factor for human urinary bladder in comparison with human salivary gland of CC(C)N(CCCN(C)C(=O)C(c1ccccc1)c1ccccc1)C(C)C [Example No 4] ?
Ans: 5

Continuing:
Q: Quick check: Selectivity factor for human urinary bladder in comparison with human salivary gland of CC(C)N(CCN(C)C(=O)C(c1ccccc1)c1ccccc1)C(C)C.Cl [Example No 3] ?
Ans: 6

---

Examples of compounds with documented Kb follow.
- System: rabbit urinary bladder
- PROCEDURE_TEXT: Anticholinergic effect on carbachol-stimulated isolated urinary bladder strips
- Type: cell-based
- MEASUREMENT_CONTEXT: Oryctolagus cuniculus; carbachol as agonist, added cumulatively; isolated rabbit bladder strips; read-out: Carbachol stim.rabbit urinary bladder KD
Lab book: enter the figure in nM, no units written.

Solved entries (count: 4):
Q: Quick check: Kb of CC(C)N(CCNC(=O)C(c1ccccc1)c1ccccc1)C(C)C ?
Ans: 110

Q: Quick check: Kb of CN(CCCN(C)C(C)(C)C)C(=O)C(c1ccccc1)c1ccccc1.Cl [Example No 7, hydrochloride] ?
Ans: 2900

Q: Quick check: Kb of CC(C)N(CCCN(C)C(=O)C(c1ccccc1)c1ccccc1)C(C)C ?
Ans: 550

Q: Quick check: Kb of CC(C)N(CCN(C)C(=O)C(c1ccccc1)c1ccccc1)C(C)C.Cl [Example No 3, hydrochloride] ?
Ans: 60

Continuing:
Q: Quick check: Kb of CC(CC(c1ccccc1)c1ccccc1)NC(C)(C)C (centres unmarked) [Terodiline, reference compound] ?
Ans: 220
